Target: T1, SdrF N1N2N3 (52-679), His-tagged recombinant A domain of S. epidermidis SdrF (Staphylococcus epidermidis (K28 genomic …, UniProt Q9KI14 53-678))
T1 construct: expressed in E. coli; also called SdrF A domain
T1 sequence: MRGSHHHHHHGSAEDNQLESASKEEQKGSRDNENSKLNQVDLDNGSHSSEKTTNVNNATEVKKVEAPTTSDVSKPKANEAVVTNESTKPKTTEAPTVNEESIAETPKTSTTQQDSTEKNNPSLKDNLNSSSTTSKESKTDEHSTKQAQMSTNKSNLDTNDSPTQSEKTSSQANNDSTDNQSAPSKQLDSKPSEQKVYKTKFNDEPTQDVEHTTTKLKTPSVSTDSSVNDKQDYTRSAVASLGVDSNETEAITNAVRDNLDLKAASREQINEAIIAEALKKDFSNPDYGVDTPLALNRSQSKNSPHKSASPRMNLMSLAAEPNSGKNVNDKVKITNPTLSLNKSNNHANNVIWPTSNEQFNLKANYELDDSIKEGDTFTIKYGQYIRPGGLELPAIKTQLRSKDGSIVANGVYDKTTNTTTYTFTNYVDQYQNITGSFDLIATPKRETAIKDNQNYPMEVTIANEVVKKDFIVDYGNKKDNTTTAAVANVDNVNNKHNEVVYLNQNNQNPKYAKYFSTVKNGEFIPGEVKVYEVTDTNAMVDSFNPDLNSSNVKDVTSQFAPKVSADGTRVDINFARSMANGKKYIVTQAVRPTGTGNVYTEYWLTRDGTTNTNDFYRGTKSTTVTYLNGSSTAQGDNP
Assay: Biacore 3000, ligand capture of mAb, SdrF (N1N2N3) in flow
value kind: kon (M⁻¹ s⁻¹)

# binder, units of measure, experimental value
measured = [
    ("murine anti-SdrF monoclonal antibody 108-36 (antibody, V domains shown, Mouse hybridoma antibody (fusion F108)) VH: QVTLRESGPGILQPSQTLSLTCSFSGFSLNTSGMGVTWIRQPSGKGLEWLANIYWDDDKRYNPSLKSRLTISKANSRNQVFLKITSVDTADTATYYCTRPNYLGTVYWYFDVWGAGTMVTVSS VL: QIVLTQSPAIMSASPGEKVTMTCSASSSVSYMYWYQQKPGSSPRVLIYDTSNLASGVPVRFSGSGSGTSYSLTISRMEAEDAATYYCQQWNGYPPTFGAGTKLEVK", "M⁻¹ s⁻¹", 230000),
    ("murine anti-SdrF monoclonal antibody 108-1 (antibody, V domains shown, Mouse hybridoma antibody (Balb/C, fusion F108)) VH: EVQLQQSGAELVKPGASVKLSCTASGFNIKDTYIHWVKQRPEQGLEWIGRIDPANGNTHYDSQFQGKATITADTSSNTAYLQLSSLTSDDTAVYYCTRRVGYAMDYWGQGTSVTVSS VL: DIVMTQSHKFMSTSVGDRVIITCKASQDVNTALAWYQQKPGQSPKLLIYSASYRYTGVPDRFTGSGSGTDFTFTISSVQAEDLAVYYCQQHYSTPPYTFGGGTKLEIK", "M⁻¹ s⁻¹", 83000),
    ("Humanized 110-15 (antibody, V domains shown, Humanized (veneered) variable regions with 'the appropriate light or heavy chain constant region', expressed in NSO cells; also called 110-15VL-Hu/110-15VH-Hu) VH: EVQLVESGGGLVQPGGSLKLSCAASGFAFSSYDMSWVRQTPEKRLEWVAYISSGGGITYYPDTVKGRFTISRDNSKNTLYVQMSSLRAEDTAVYYCTRHDRDSWFAYWGQGTLVTVSS VL: EIVLTQSPGTMSASPGERGTMSCSASSSVRYMYWYRQKPGQSPRLLIYDTSNLASGVPARFSGSGSGTSYSLTISRMEAEDAATYYCQQWSSYPPTFGGGTKLEMK", "M⁻¹ s⁻¹", 170000),
]

Value source: patent US20100183623A1
